Target: NA enzymatic activity of A/Georgia/20/2006 H274Y (Influenza A virus (H1N1))
Assay: biochemical
Assay type: biochemical
Conditions: read-out: IC50
endpointName: IC50

Reported IC50 ( CCC(CC)O[C@@H]1C=C(C(=O)O)C[C@H](N)[C@H]1NC(C)=O [oseltamivir, oseltamivir carboxylate] ) = 192 nM

###

Target: NA enzymatic activity of A/St.Louis/758/09 (Influenza A virus, UniProt D0FH51, S5N)
Experiment: biochemical
Type: biochemical, IFV A (H1N1)
endpointName: pIC50
Lab note — pIC50 values are minus log10 of concentrations in M.

Reported pIC50 ( `CC(=O)N[C@H]1[C@H]([C@H](O)[C@H](O)CO)OC(C(=O)O)=C[C@@H]1N=C(N)N` ) = 9.47

###

Target: NA enzymatic activity of A/Georgia/20/2006 H274Y (Influenza A virus (H1N1))
Experiment: biochemical
Format: biochemical
endpointName: pIC50
Lab note — pIC50 values are minus log10 of concentrations in M.

Reported pIC50 ( CC(=O)N[C@H]1[C@H]([C@H](O)[C@H](O)CO)OC(C(=O)O)=C[C@@H]1N=C(N)N [zanamivir] ) = 9.24
